Taken from ChEMBL document CHEMBL3045640.

Listing of entries alongside the reported Ratio IC50.
test_system: Acetylcholinesterase (Musca domestica)
protocol_notes: Ratio of MH IC50 to compound IC50 for AChE in Musca domestica (house fly) brain
measured_parameter: Ratio IC50

[[record]]
smiles = "CNC(=O)Oc1cccc(OCCCCOc2ccc(C(F)(F)F)cc2)c1"
measured_parameter = "Ratio IC50"
result = 7

[[record]]
smiles = "CNC(=O)Oc1cccc(OCCCCOc2cccc([N+](=O)[O-])c2)c1"
measured_parameter = "Ratio IC50"
result = 62

[[record]]
smiles = "CNC(=O)Oc1cccc(OCCCOc2ccc([N+](=O)[O-])cc2)c1"
measured_parameter = "Ratio IC50"
result = 11

[[record]]
smiles = "CNC(=O)Oc1cccc(OCCCCOc2ccc([N+](=O)[O-])cc2)c1"
measured_parameter = "Ratio IC50"
result = 17

[[record]]
smiles = "CNC(=O)Oc1cccc(OCCCOc2ccc(C(F)(F)F)cc2)c1"
measured_parameter = "Ratio IC50"
result = 7

[[record]]
smiles = "CNC(=O)Oc1cccc(OCCCCOc2ccccc2[N+](=O)[O-])c1"
measured_parameter = "Ratio IC50"
result = 13

